- Tested on: Klebsiella aerogenes DSM 30053
- test: fold change of Histamine concentration vs plate DMSO controls (fold change (ratio)); higher = more amine produced, active = hit call of the paper (significant change in both replicates, either direction)
- condition: incubation time: 27 h, anaerobic, 37 °C
List of fold change of Histamine concentration values.
Lab note: jot down the number only; don't add units.

Give the reported fold change of Histamine concentration for CCc1cc(C(N)=S)ccn1 [Ethionamide] (20 µM) (system: Klebsiella aerogenes DSM 30053).
0.962

Give the reported fold change of Histamine concentration for CC(=O)OCC(=O)[C@@]1(O)CC[C@H]2[C@@H]3CCC4=CC(=O)CC[C@]4(C)[C@H]3[C@@H](O)C[C@@]21C [Cortisol acetate] (20 µM) (system: Klebsiella aerogenes DSM 30053).
0.896

Now turn to the next compound.
Give the reported fold change of Histamine concentration for CCC[C@H](N[C@@H](C)C(=O)N1[C@H](C(=O)O)C[C@@H]2CCCC[C@@H]21)C(=O)OCC [Perindopril] (20 µM) (system: Klebsiella aerogenes DSM 30053).
0.997
